assayMethodText: total protein half-life in vivo (active degradation + dilution); higher = more stable protein
testSettings: E. coli NCM3722 delta-clpP delta-lon delta-hslV; growth: N-lim chemostat; doubling time 6 h
measure: total protein half-life in vivo (h)
Numbers only, in h.

sequenceRecord: MSEKYIVTWDMLQIHARKLASRLMPSEQWKGIIAVSRGGLVPGALLARELGIRHVDTVCISSYDHDNQRELKVLKRAEGDGEGFIVIDDLVDTGGTAVAIREMYPKAHFVTIFAKPAGRPLVDDYVVDIPQDTWIEQPWDMGVVFVPPISGR [P0A9M5]
total protein half-life in vivo (h): 4.63
//
sequenceRecord: MDMDLNNRLTEDETLEQAYDIFLELAADNLDPADVLLFNLQFEERGGAELFDPAEDWQEHVDFDLNPDFFAEVVIGLADSEDGEINDVFARILLCREKDHKLCHIIWRE [P0A8L7]
total protein half-life in vivo (h): 5.64

For every item below, please supply its total protein half-life in vivo.
1. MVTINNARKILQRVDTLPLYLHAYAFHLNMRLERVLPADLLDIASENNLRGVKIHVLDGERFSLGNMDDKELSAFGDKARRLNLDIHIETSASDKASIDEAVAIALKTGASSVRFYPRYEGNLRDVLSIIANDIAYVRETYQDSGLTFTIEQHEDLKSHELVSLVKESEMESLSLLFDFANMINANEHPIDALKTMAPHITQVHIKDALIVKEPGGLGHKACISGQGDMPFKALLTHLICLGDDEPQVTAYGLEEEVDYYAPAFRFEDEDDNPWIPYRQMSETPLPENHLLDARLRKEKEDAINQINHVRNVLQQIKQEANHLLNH
2. MATLKDIAIEAGVSLATVSRVLNDDPTLNVKEETKHRILEIAEKLEYKTSSARKLQTGAVNQHHILAIYSYQQELEINDPYYLAIRHGIETQCEKLGIELTNCYEHSGLPDIKNVTGILIVGKPTPALRAAASALTDNICFIDFHEPGSGYDAVDIDLARISKEIIDFYINQGVNRIGFIGGEDEPGKADIREVAFAEYGRLKQVVREEDIWRGGFSSSSGYELAKQMLAREDYPKALFVASDSIAIGVLRAIHERGLNIPQDISLISVNDIPTARFTFPPLSTVRIHSEMMGSQGVNLVYEKARDGRALPLLVFVPSKLKLRGTTR
3. MKKILLMLSLLFFTTAGFSEVSDTLVTGGYDKQAMSDAIKHARKETDKFIEVMNKKDADTFAVKAPITDHGRTEHFWLTDVTYSNGMFIGVISNDPGIVTNVEYGQEWKIKKEDISDWMYTRGDKIYGGYTIDPLLVTYPKEEADELRAKLVR
4. MQQVFFQETEFLNSVIDYDHKVETENLCLDIAYGTDKNFLFGCGISIASILKYNEGSRLCFHIFTDYFGDDDRKYFDALALQYKTRIKIYLINGDRLRSLPSTKNWTHAIYFRFVIADYFINKAPKVLYLDADIICQGTIEPLINFSFPDDKVAMVVTEGQADWWEKRAHSLGVAGIAKGYFNSGFLLINTAQWAAQQVSARAIAMLNEPEIIKKITHPDQDVLNMLLADKLIFADIKYNTQFSLNYQLKESFINPVTNDTIFIHYIGPTKPWHDWAWDYPVSQAFMEAKNASPWKNTALLKPNNSNQLRYSAKHMLKKHRYLKGFSNYLFYFIEKIKH

output:
1: 4.45; 2: 5.54; 3: 3.76; 4: 6.72

----------
assayMethodText: total protein half-life in vivo (active degradation + dilution); higher = more stable protein
testSettings: E. coli NCM3722 delta-smpB; growth: N-lim chemostat; doubling time 6 h
total protein half-life in vivo vs 5 h: at or above is yes (1), below is no (0).

Field: example entries. Status: answers known.
sequenceRecord: MMDNMQTEAQPTRTRILNAAREIFSENGFHSASMKAICKSCAISPGTLYHHFISKEALIQAIILQDQERALARFREPIEGIHFVDYMVESIVSLTHEAFGQRALVVEIMAEGMRNPQVAAMLKNKHMTITEFVAQRMRDAQQKGEISPDINTAMTSRLLLDLTYGVLADIEAEDLAREASFAQGLRAMIGGILTAS [P0ACT6]
classification: yes (1)
//
sequenceRecord: MIRQRRRALTPEQQQEMGQQAATRMMTYPPVVMAHTVAVFLSFDGELDTQPLIEQLWRAGKRVYLPVLHPFSAGNLLFLNYHPQSELVMNRLKIHEPKLDVRDVLPLSRLDVLITPLVAFDEYGQRLGMGGGFYDRTLQNWQHYKTQPVGYAHDCQLVEKLPVEEWDIPLPAVVTPSKVWEW [P0AC28]
classification: no (0)
//
sequenceRecord: MSQIFAYCRISTLDQTTENQRREIESAGFKIKPQQIIEEHISGSAATSERPGFNRLLARLKCGDQLIVTKLDRLGCNAMDIRKTVEQLTETGIRVHCLALGGIDLTSPTGKMMMQVISAVAEFERDLLLERTHSGIVRARGAGKRFGRPPVLNEEQKQAVFERIKSGVSISAIAREFKTSRQTILRAKAKLQTPDI
classification: no (0)
//
sequenceRecord: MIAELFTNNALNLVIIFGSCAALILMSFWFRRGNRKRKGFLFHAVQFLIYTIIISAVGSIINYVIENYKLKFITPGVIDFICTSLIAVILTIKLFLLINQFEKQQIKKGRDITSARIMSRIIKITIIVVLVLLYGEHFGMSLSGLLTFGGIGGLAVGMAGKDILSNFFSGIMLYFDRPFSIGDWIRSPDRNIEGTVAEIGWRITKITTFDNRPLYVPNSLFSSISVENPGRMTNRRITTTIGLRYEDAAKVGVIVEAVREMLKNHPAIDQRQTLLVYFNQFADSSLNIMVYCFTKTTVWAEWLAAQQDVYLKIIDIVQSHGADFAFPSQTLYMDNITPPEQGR [P0AEB5]
classification: yes (1)
//
sequenceRecord: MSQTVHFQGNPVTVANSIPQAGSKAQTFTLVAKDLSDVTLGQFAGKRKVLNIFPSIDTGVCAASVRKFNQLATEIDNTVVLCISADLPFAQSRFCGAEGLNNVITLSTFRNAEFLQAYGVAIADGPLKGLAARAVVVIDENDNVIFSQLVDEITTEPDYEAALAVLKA [P0A862]
classification: no (0)

--- query ---
input: Confirm if total protein half-life in vivo reported for the sequence MKDKVYKRPVSILVVIYAQDTKRVLMLQRRDDPDFWQSVTGSVEEGETAPQAAMREVKEEVTIDVVAEQLTLIDCQRTVEFEIFSHLRHRYAPGVTRNTESWFCLALPHERQIVFTEHLAYKWLDAPAAAALTKSWSNRQAIEQFVINAA [P0AFC0] is 5 h or above.
output: no (0)

----------
assayMethodText: total protein half-life in vivo (active degradation + dilution); higher = more stable protein
testSettings: wild type E. coli NCM3722; growth: N-lim chemostat; doubling time 6 h
Please go through the items and note down their total protein half-life in vivo.
Answer shape: numeric part, then the unit.

Observe how each entry below is paired with its result.
sequenceRecord: MPELPEVETSRRGIEPHLVGATILHAVVRNGRLRWPVSEEIYRLSDQPVLSVQRRAKYLLLELPEGWIIIHLGMSGSLRILPEELPPEKHDHVDLVMSNGKVLRYTDPRRFGAWLWTKELEGHNVLTHLGPEPLSDDFNGEYLHQKCAKKKTAIKPWLMDNKLVVGVGNIYASESLFAAGIHPDRLASSLSLAECELLARVIKAVLLRSIEQGGTTLKDFLQSDGKPGYFAQELQVYGRKGEPCRVCGTPIVATKHAQRATFYCRQCQK
total protein half-life in vivo: 6.31 h

sequenceRecord: MKRQKRDRLERAHQRGYQAGIAGRSKEMCPYQTLNQRSQWLGGWREAMADRVVMA [P0AFW2]
total protein half-life in vivo: 0.352 h

Shift focus to the following entry.
input: Supply total protein half-life in vivo value. Item: MSTLRLLISDSYDPWFNLAVEECIFRQMPATQRVLFLWRNADTVVIGRAQNPWKECNTRRMEEDNVRLARRSSGGGAVFHDLGNTCFTFMAGKPEYDKTISTSIVLNALNALGVSAEASGRNDLVVKTVEGDRKVSGSAYRETKDRGFHHGTLLLNADLSRLANYLNPDKKKLAAKGITSVRSRVTNLTELLPGITHEQVCEAITEAFFAHYGERVEAEIISPNKTPDLPNFAETFARQSSWEWNFGQAPAFSHLLDERFTWGGVELHFDVEKGHITRAQVFTDSLNPAPLEALAGRLQGCLYRADMLQQECEALLVDFPEQEKELRELSAWMAGAVR
output: 4.8 h

----------
assayMethodText: total protein half-life in vivo (active degradation + dilution); higher = more stable protein
testSettings: E. coli NCM3722 delta-clpP; growth: N-lim chemostat; doubling time 6 h
total protein half-life in vivo vs 5 h: at or above is fulfilled, below is not fulfilled.

Field: example entries. Status: answers known.
sequenceRecord: MQARVKWVEGLTFLGESASGHQILMDGNSGDKAPSPMEMVLMAAGGCSAIDVVSILQKGRQDVVDCEVKLTSERREEAPRLFTHINLHFIVTGRDLKDAAVARAVDLSAEKYCSVALMLEKAVNITHSYEVVAA [P0ADX1]
classification: fulfilled

sequenceRecord: MGKLTLLLLAILVWLQYSLWFGKNGIHDYTRVNDDVAAQQATNAKLKARNDQLFAEIDDLNGGQEALEERARNELSMTRPGETFYRLVPDASKRAQSAGQNNR [P0A6S5]
classification: not fulfilled

sequenceRecord: MVRIYTLTLAPSLDSATITPQIYPEGKLRCTAPVFEPGGGGINVARAIAHLGGSATAIFPAGGATGEHLVSLLADENVPVATVEAKDWTRQNLHVHVEASGEQYRFVMPGAALNEDEFRQLEEQVLEIESGAILVISGSLPPGVKLEKLTQLISAAQKQGIRCIVDSSGEALSAALAIGNIELVKPNQKELSALVNRELTQPDDVRKAAQEIVNSGKAKRVVVSLGPQGALGVDSENCIQVVPPPVKSQSTVGAGDSMVGAMTLKLAENASLEEMVRFGVAAGSAATLNQGTRLCSHDDTQKIYAYLSR
classification: not fulfilled

input: Confirm if total protein half-life in vivo reported for the sequence MMVIRPVERSDVSALMQLASKTGGGLTSLPANEATLSARIERAIKTWQGELPKSEQGYVFVLEDSETGTVAGICAIEVAVGLNDPWYNYRVGTLVHASKELNVYNALPTLFLSNDHTGSSELCTLFLDPDWRKEGNGYLLSKSRFMFMAAFRDKFNDKVVAEMRGVIDEHGYSPFWQSLGKRFFSMDFSRADFLCGTGQKAFIAELMPKHPIYTHFLSQEAQDVIGQVHPQTAPARAVLEKEGFRYRNYIDIFDGGPTLECDIDRVRAIRKSRLVEVAEGQPAQGDFPACLVANENYHHFRVVLVRTDPATERLILTAAQLDALKCHAGDRVRLVRLCAEEKTA [P0AE37] is 5 h or above.
output: not fulfilled

input: Confirm if total protein half-life in vivo reported for the sequence MLYIFDLGNVIVDIDFNRVLGAWSDLTRIPLASLKKSFHMGEAFHQHERGEISDEAFAEALCHEMALPLSYEQFSHGWQAVFVALRPEVIAIMHKLREQGHRVVVLSNTNRLHTTFWPEEYPEIRDAADHIYLSQDLGMRKPEARIYQHVLQAEGFSPSDTVFFDDNADNIEGANQLGITSILVKDKTTIPDYFAKVLC [P0A8Y3] is 5 h or above.
output: fulfilled

These data points were gathered from the supplement of paper PMC11246515.
